Target: T1, Bdf1 bromodomain 1 (GST-tagged, WT) (Saccharomyces cerevisiae (strain ATCC …, UniProt P35817))
T1 chain: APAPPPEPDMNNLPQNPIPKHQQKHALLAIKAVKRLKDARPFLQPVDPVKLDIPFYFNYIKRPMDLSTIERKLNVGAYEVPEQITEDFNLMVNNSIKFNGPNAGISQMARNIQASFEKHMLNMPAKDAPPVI
Experiment: histone peptide array probed with recombinant GST-bromodomain, signal normalised to myc peptide control
Non-standard residues stand in square brackets, D forms with d. No end group written: not given here. Arg(Me2a) = CN(C)C(=N)NCCC[C@H](N)C(=O)O; Arg(Me2s) = CN=C(NC)NCCC[C@H](N)C(=O)O; pT = C[C@@H](OP(=O)(O)O)[C@H](N)C(=O)O; Lys(Me2) = CN(C)CCCC[C@H](N)C(=O)O; pS = N[C@@H](COP(=O)(O)O)C(=O)O; Lys(Me) = CNCCCC[C@H](N)C(=O)O
READOUT NAME: binding score

# BINDER, READOUT NAME, OBSERVED RESULT
measured = [
    ("A[Arg(Me2a)]TK(Ac)QTARK(Ac)STGGKAPRKQ", "binding score", 0.0911),
    ("A[Arg(Me2a)]T[Lys(Me2)]QTARK(Ac)STGGKAPRKQ", "binding score", 0),
    ("AR[pT]K(Ac)QTARKSTGGKAPRKQ", "binding score", 0.0321),
    ("PRKQLATKAAR[Lys(Me)]SAPATGG [H3 16-35]", "binding score", 0),
    ("ARTKQTA[Arg(Me2s)][Lys(Me)][pS]TGGKAPRKQ", "binding score", 0.00394),
    ("SGRGK(Ac)QGGKARAKAKSRSS [H2a 1-19]", "binding score", 0),
    ("SGRGKGGKGLGKGGAKRHR (S G Rme2s G K G G K G L G K G G A K R H R) [H4 1-19]", "binding score", 0.00646),
]
